System: 299254-011-R-J1-PDC complex spheroid viability;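 note: spheroids exposed to drugs for one week before measurement; percent viability relative to DMSO vehicle control taken as 100%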
Experiment: Anticancer human tumor 299254-011-R-J1-PDC patient-derived melanoma cell line growth inhibition [POLQ]
Details: second compound 1 µM; first compound 0.1 µM; active compounds read low
Each entry below lists one item and its recorded viability, T/C value.

Solved cases below.
| molecule | readout value |
| --- | --- |
| O=C(c1cc(Cc2n[nH]c(=O)c3ccccc23)ccc1F)N1CCN(C(=O)C2CC2)CC1 + Nc1ccc(C#CCN(C(=O)Cc2ncc(C(F)(F)F)cc2C(F)(F)F)c2ccc(F)cc2)nn1 | 95.4% |
| Nc1ccn(C2OC(CO)C(O)C2(F)F)c(=O)n1 (stereo not given) + Nc1ccc(C#CCN(C(=O)Cc2ncc(C(F)(F)F)cc2C(F)(F)F)c2ccc(F)cc2)nn1 | 69.2% |
| COc1cccc(OCCCN)c1-c1cc(Nc2cnc(C#N)cn2)n[nH]1 + Nc1ccc(C#CCN(C(=O)Cc2ncc(C(F)(F)F)cc2C(F)(F)F)c2ccc(F)cc2)nn1 | 51.6% |
| COc1cc2cc(C(=O)CCC(=O)O)sc2cc1OC + COC1C(OC(N)=O)C(O)C(Oc2ccc3c(O)c(NC(=O)c4ccc(O)c(CC=C(C)C)c4)c(=O)oc3c2C)OC1(C)C | 104% |
| O=c1[nH]cc(F)c(=O)[nH]1 + Cc1cccc(N(C)C(=O)C2C(O)CCN2c2nc(C)cc(C(F)(F)F)c2C#N)c1 | 99.7% |
| CC1COCCN1c1cc(-c2ccnn2C)c2ccnc(-c3ccn[nH]3)c2n1 (stereo not given) + COC1C(OC(N)=O)C(O)C(Oc2ccc3c(O)c(NC(=O)c4ccc(O)c(CC=C(C)C)c4)c(=O)oc3c2C)OC1(C)C | 72.2% |
| COc1cc(C2c3cc4c(cc3C(OC3OC5COC(C)OC5C(O)C3O)C3COC(=O)C23)OCO4)cc(OC)c1O (stereo not given) + Cc1cccc(N(C)C(=O)C2C(O)CCN2c2nc(C)cc(C(F)(F)F)c2C#N)c1 | 93.1% |
| COc1ccc([C@@H](O)c2cc(-c3ncnc4cc(N5CCOCC5)ccc34)c(F)cc2Cl)nn1 + Nc1ccc(C#CCN(C(=O)Cc2ncc(C(F)(F)F)cc2C(F)(F)F)c2ccc(F)cc2)nn1 | 98.5% |
| Cn1ncnc1[C@H]1c2n[nH]c(=O)c3cc(F)cc(c23)N[C@@H]1c1ccc(F)cc1 + Nc1ccc(C#CCN(C(=O)Cc2ncc(C(F)(F)F)cc2C(F)(F)F)c2ccc(F)cc2)nn1 | 113% |
| CC[C@@]1(O)C(=O)OCc2c1cc1n(c2=O)Cc2cc3c(CN(C)C)c(O)ccc3nc2-1 + Nc1ccc(C#CCN(C(=O)Cc2ncc(C(F)(F)F)cc2C(F)(F)F)c2ccc(F)cc2)nn1 | 96% |

Any idea what its viability, T/C is? The molecule is O=C(Nc1ccc(O)c(NS(=O)(=O)c2ccc(F)cc2)c1)c1ccc(-c2ccccc2)cc1 + COC1C(OC(N)=O)C(O)C(Oc2ccc3c(O)c(NC(=O)c4ccc(O)c(CC=C(C)C)c4)c(=O)oc3c2C)OC1(C)C
104%

Any idea what its viability, T/C is? The molecule is C#Cc1c(F)ccc2cc(O)cc(-c3ncc4c(N5CC6CCC(C5)N6)nc(OCC56CCCN5CC(F)C6)nc4c3F)c12 (stereo not given) + COC1C(OC(N)=O)C(O)C(Oc2ccc3c(O)c(NC(=O)c4ccc(O)c(CC=C(C)C)c4)c(=O)oc3c2C)OC1(C)C
98.2%

Any idea what its viability, T/C is? The molecule is O=C(c1cc(Cc2n[nH]c(=O)c3ccccc23)ccc1F)N1CCN(C(=O)C2CC2)CC1 + COC1C(OC(N)=O)C(O)C(Oc2ccc3c(O)c(NC(=O)c4ccc(O)c(CC=C(C)C)c4)c(=O)oc3c2C)OC1(C)C
122%

Any idea what its viability, T/C is? The molecule is CCc1cc2c(N3CCc4c(cc(Cn5ccnc5)cc4-c4cn(C)nc4C(F)(F)F)C3=O)ccnc2c(OC)n1 + Cc1cccc(N(C)C(=O)C2C(O)CCN2c2nc(C)cc(C(F)(F)F)c2C#N)c1
96.9%

Any idea what its viability, T/C is? The molecule is CCc1cc2c(N3CCc4c(cc(Cn5ccnc5)cc4-c4cn(C)nc4C(F)(F)F)C3=O)cc(C)nc2c(OC)n1 + Nc1ccc(C#CCN(C(=O)Cc2ncc(C(F)(F)F)cc2C(F)(F)F)c2ccc(F)cc2)nn1
95.7%

Any idea what its viability, T/C is? The molecule is C=CC(=O)N1CCN(c2nc(=O)n(-c3c(C)ccnc3C(C)C)c3nc(-c4c(O)cccc4F)c(F)cc23)C(C)C1 (stereo not given) + Cc1cccc(N(C)C(=O)C2C(O)CCN2c2nc(C)cc(C(F)(F)F)c2C#N)c1
73.8%
